# method: Clearance in Sprague-Dawley rat at 30 mg/kg, po and 1 mg/kg, iv
# Format: ADME, organism-based
# condition_label: in vivo
measured_metric: clearance
The number alone won't do; follow it with the unit.

### Prompt Supply reported clearance belonging to this compound: "Cc1ccccc1N1CC(C)(C)N([C@H]2CNC[C@@H](C(=O)N[C@H](CC(C)C)c3ccc(F)cn3)C2)CC1=O.O=C(O)/C=C/C(=O)O"
### Response 80 mL/min/kg

###

# assayed_target: Renin (Macaca fascicularis, UniProt Q6DLS0)
# Sequence (Q6DLS0 whole entry): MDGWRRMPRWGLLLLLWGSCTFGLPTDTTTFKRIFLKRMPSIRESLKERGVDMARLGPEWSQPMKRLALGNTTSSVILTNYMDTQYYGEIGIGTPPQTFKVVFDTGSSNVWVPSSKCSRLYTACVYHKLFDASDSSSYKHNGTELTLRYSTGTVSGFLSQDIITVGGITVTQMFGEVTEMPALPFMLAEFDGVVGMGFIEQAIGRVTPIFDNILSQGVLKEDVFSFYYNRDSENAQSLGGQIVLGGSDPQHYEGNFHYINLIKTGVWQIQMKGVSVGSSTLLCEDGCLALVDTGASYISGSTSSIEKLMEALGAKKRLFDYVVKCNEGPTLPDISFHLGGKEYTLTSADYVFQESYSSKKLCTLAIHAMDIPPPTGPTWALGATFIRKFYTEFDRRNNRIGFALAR
# method: Inhibition of cynomolgus monkey plasma renin assessed as angiotensin 1 level after 60 mins by competitive radioimmunoassay
Exercise: state measured IC50 for each of the compounds provided.
Return type: number; implicit unit nM.

### Prompt Supply reported IC50 belonging to this compound: "CC(C)C[C@@H](NC(=O)[C@@H]1CNC[C@H](N2CC(=O)N(c3ccccc3Cl)CC2(C)C)C1)c1ccno1"
### Response 3.3

### Prompt Supply reported IC50 belonging to this compound: "CC(C)C[C@@H](NC(=O)[C@@H]1CNC[C@H](N2CC(=O)N(c3ccccc3Cl)CC2(C)C)C1)c1ccccn1"
### Response 17

### Prompt Supply reported IC50 belonging to this compound: "Cc1ccccc1N1CC(C)(C)N([C@H]2CNC[C@@H](C(=O)N[C@H](CC(C)C)c3ccc(F)cn3)C2)CC1=O.O=C(O)/C=C/C(=O)O"
### Response 7

### Prompt Supply reported IC50 belonging to this compound: "CC[C@@H](NC(=O)[C@@H]1CNC[C@H](N2CC(=O)N(c3ccccc3Cl)CC2(C)C)C1)c1ccc(Cl)cc1"
### Response 55

### Prompt Supply reported IC50 belonging to this compound: "CC(C)C[C@@H](NC(=O)[C@@H]1CNC[C@H](N2CC(=O)N(c3ccccc3Cl)CC2(C)C)C1)c1ccc(F)cn1.O=C(O)/C=C/C(=O)O"
### Response 9.7

### Prompt Supply reported IC50 belonging to this compound: "CC(C)C[C@@H](NC(=O)[C@@H]1CNC[C@H](N2CC(=O)N(c3ccccc3Cl)CC2(C)C)C1)c1ncco1"
### Response 8.3

### Prompt Supply reported IC50 belonging to this compound: "CC[C@@H](NC(=O)[C@@H]1CNC[C@H](N2CC(=O)N(c3ccccc3Cl)CC2(C)C)C1)c1cccc(F)c1"
### Response 14

###

# method: AUC (0 to 24 hrs) in Sprague-Dawley rat at 30 mg/kg, po
# Type: ADME, organism-based
# Design: time < 24 hr, dose 30 mg/kg, route oral
# condition_label: plasma
measured_metric: AUC(0-t) at 24 h (ng·h/mL)
Return type: number; implicit unit ng·h/mL.

### Prompt Supply reported AUC(0-t) at 24 h belonging to this compound: "Cc1ccccc1N1CC(C)(C)N([C@H]2CNC[C@@H](C(=O)N[C@H](CC(C)C)c3ccc(F)cn3)C2)CC1=O.O=C(O)/C=C/C(=O)O"
### Response 1100

###

# assayed_target: CYP3A4 (Homo sapiens, UniProt P08684)
# Sequence (P08684 whole entry): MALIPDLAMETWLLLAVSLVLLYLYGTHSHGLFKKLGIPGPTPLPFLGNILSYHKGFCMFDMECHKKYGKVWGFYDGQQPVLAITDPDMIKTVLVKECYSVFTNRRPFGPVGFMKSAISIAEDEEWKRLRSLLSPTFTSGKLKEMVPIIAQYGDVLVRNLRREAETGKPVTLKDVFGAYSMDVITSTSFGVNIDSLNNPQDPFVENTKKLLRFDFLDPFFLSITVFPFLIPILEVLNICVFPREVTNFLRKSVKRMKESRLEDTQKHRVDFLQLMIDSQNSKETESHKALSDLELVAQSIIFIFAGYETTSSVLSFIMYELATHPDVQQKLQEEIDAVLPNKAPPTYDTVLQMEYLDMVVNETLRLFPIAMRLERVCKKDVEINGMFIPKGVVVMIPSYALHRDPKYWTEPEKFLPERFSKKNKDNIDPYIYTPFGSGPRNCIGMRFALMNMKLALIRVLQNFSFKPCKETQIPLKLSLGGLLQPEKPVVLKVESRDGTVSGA
# method: Inhibition of CYP3A4 (unknown origin) at 10 uM
# Format: ADME
measured_metric: inhibition at 10 µM (%)
Return type: number; implicit unit %.

### Prompt Supply reported inhibition at 10 µM belonging to this molecule: "Cc1ccc(F)cc1N1CC(C)(C)N([C@H]2CNC[C@@H](C(=O)N[C@H](CC(C)C)c3ccc(F)cn3)C2)CC1=O"
### Response 44

### Prompt Supply reported inhibition at 10 µM belonging to this molecule: "CC(C)C[C@@H](NC(=O)[C@@H]1CNC[C@H](N2CC(=O)N(c3ccccc3Cl)CC2(C)C)C1)c1ccc(F)cn1.O=C(O)/C=C/C(=O)O"
### Response 22

### Prompt Supply reported inhibition at 10 µM belonging to this molecule: "Cc1ccccc1N1CC(C)(C)N([C@H]2CNC[C@@H](C(=O)N[C@H](CC(C)C)c3ccc(F)cn3)C2)CC1=O.O=C(O)/C=C/C(=O)O"
### Response 30

###

# method: Plasma protein binding in human by ultracentrifugation method
# Assay type: ADME, cell-free
# condition_label: read-out: PPB (converted)
measured_metric: fraction unbound
Write the number on its own, no unit after it.

### Prompt Supply reported fraction unbound belonging to this compound: "Cc1ccccc1N1CC(C)(C)N([C@H]2CNC[C@@H](C(=O)N[C@H](CC(C)C)c3ccc(F)cn3)C2)CC1=O.O=C(O)/C=C/C(=O)O"
### Response 0.62

###

# method: AUC (0 to 24 hrs) in cynomolgus monkey at 3 mg/kg, po
# Format: ADME, organism-based, Macaca fascicularis
# Design: time < 24 hr, dose 3 mg/kg, route oral
# condition_label: plasma
measured_metric: AUC(0-t) at 24 h
The number alone won't do; follow it with the unit.

### Prompt Supply reported AUC(0-t) at 24 h belonging to this compound: "CC[C@@H](NC(=O)[C@@H]1CNC[C@H](N2CC(=O)N(c3ccccc3Cl)CC2(C)C)C1)c1ccccc1.O=C(O)/C=C/C(=O)O"
### Response 730 ng·h/mL

### Prompt Supply reported AUC(0-t) at 24 h belonging to this compound: "CCOC[C@@H](CC(C)C)NC(=O)[C@@H]1CNC[C@H](N2CC(=O)N(c3ccccc3Cl)CC2(C)C)C1.O=C(O)/C=C/C(=O)O"
### Response 60 ng·h/mL

###

# method: Metabolic stability in rat liver microsomes assessed as compound remaining after 30 mins
# Assay type: ADME, Microsome
# condition_label: read-out: Stability
measured_metric: remaining at 0.5 h (%)
Return type: number; implicit unit %.

### Prompt Supply reported remaining at 0.5 h belonging to this molecule: "Cc1ccccc1N1CC(C)(C)N([C@H]2CNC[C@@H](C(=O)N[C@H](CC(C)C)c3ccc(F)cn3)C2)CC1=O.O=C(O)/C=C/C(=O)O"
### Response 89

###

# assayed_target: Renin (Macaca fascicularis)
# method: Ratio of compound IC50 to Aliskiren hemifumarate IC50 for cynomolgus monkey plasma renin
measured_metric: Ratio IC50
Write the number on its own, no unit after it.

### Prompt Supply reported Ratio IC50 belonging to this compound: "Cc1ccccc1N1CC(C)(C)N([C@H]2CNC[C@@H](C(=O)N[C@H](CC(C)C)c3ccc(F)cn3)C2)CC1=O.O=C(O)/C=C/C(=O)O"
### Response 0.9

### Prompt Supply reported Ratio IC50 belonging to this compound: "CC[C@@H](NC(=O)[C@@H]1CNC[C@H](N2CC(=O)N(c3ccccc3Cl)CC2(C)C)C1)c1ccccc1.O=C(O)/C=C/C(=O)O"
### Response 1.8

### Prompt Supply reported Ratio IC50 belonging to this compound: "CC[C@@H](NC(=O)[C@@H]1CNC[C@H](N2CC(=O)N(c3ccccc3Cl)CC2(C)C)C1)c1ccc(Cl)cc1"
### Response 11

### Prompt Supply reported Ratio IC50 belonging to this compound: "CCC[C@@H](NC(=O)[C@@H]1CNC[C@H](N2CC(=O)N(c3ccccc3Cl)CC2(C)C)C1)c1ccccc1"
### Response 2

###

# method: Lipophilicity, log D of the compound at pH 7.4
# Assay type: physicochemical
# condition_label: buffer
measured_metric: logD
Write the number on its own, no unit after it.

### Prompt Supply reported logD belonging to this compound: "Cc1ccccc1N1CC(C)(C)N([C@H]2CNC[C@@H](C(=O)N[C@H](CC(C)C)c3ccc(F)cn3)C2)CC1=O.O=C(O)/C=C/C(=O)O"
### Response 2

###

# assayed_target: Renin (Macaca fascicularis)
# method: Ratio of compound IC50 to Aliskiren hemifumarate IC50 for cynomolgus monkey plasma renin
Note to self: values exactly at 2 are yes. So Ratio IC50 at or above 2 is yes, below is no.

### Prompt Is Ratio IC50 at least 2? Consider "CC[C@@H](NC(=O)[C@@H]1CNC[C@H](N2CC(=O)N(c3ccccc3Cl)CC2(C)C)C1)c1cccc(Cl)c1"
### Response yes

### Prompt Is Ratio IC50 at least 2? Consider "CC(C)CC(CC(C)C)NC(=O)[C@@H]1CNC[C@H](N2CC(=O)N(c3ccccc3Cl)CC2(C)C)C1"
### Response yes

### Prompt Is Ratio IC50 at least 2? Consider "CC[C@@H](NC(=O)[C@@H]1CNC[C@H](N2CC(=O)N(c3ccccc3Cl)CC2(C)C)C1)c1ccccc1F"
### Response yes

### Prompt Is Ratio IC50 at least 2? Consider "CC(C)C[C@@H](NC(=O)[C@@H]1CNC[C@H](N2CC(=O)N(c3ccccc3Cl)CC2(C)C)C1)c1ccccn1"
### Response yes

### Prompt Is Ratio IC50 at least 2? Consider "CC[C@@H](NC(=O)[C@@H]1CNC[C@H](N2CC(=O)N(c3ccccc3Cl)CC2(C)C)C1)c1ccc(F)cc1"
### Response yes

### Prompt Is Ratio IC50 at least 2? Consider "CC(C)C[C@@H](NC(=O)[C@@H]1CNC[C@H](N2CC(=O)N(c3ccccc3Cl)CC2(C)C)C1)c1cncc(F)c1"
### Response no

### Prompt Is Ratio IC50 at least 2? Consider "CC[C@@H](NC(=O)[C@@H]1CNC[C@H](N2CC(=O)N(c3ccccc3Cl)CC2(C)C)C1)c1cccc(F)c1"
### Response yes

### Prompt Is Ratio IC50 at least 2? Consider "CC(C)C[C@@H](NC(=O)[C@@H]1CNC[C@H](N2CC(=O)N(c3ccccc3Cl)CC2(C)C)C1)c1ccc(F)cn1.O=C(O)/C=C/C(=O)O"
### Response yes

### Prompt Is Ratio IC50 at least 2? Consider "CC(C)C[C@@H](NC(=O)[C@@H]1CNC[C@H](N2CC(=O)N(c3ccccc3Cl)CC2(C)C)C1)c1ncco1"
### Response no

### Prompt Is Ratio IC50 at least 2? Consider "CC(C)C[C@@H](NC(=O)[C@@H]1CNC[C@H](N2CC(=O)N(c3ccccc3Cl)CC2(C)C)C1)c1ccno1"
### Response no

### Prompt Is Ratio IC50 at least 2? Consider "CC(C)C[C@@H](NC(=O)[C@@H]1CNC[C@H](N2CC(=O)N(c3ccccc3Cl)CC2(C)C)C1)c1ccccc1"
### Response no

### Prompt Is Ratio IC50 at least 2? Consider "CCOC[C@@H](CC(C)C)NC(=O)[C@@H]1CNC[C@H](N2CC(=O)N(c3ccccc3Cl)CC2(C)C)C1.O=C(O)/C=C/C(=O)O"
### Response no

### Prompt Is Ratio IC50 at least 2? Consider "CC(C)C[C@@H](NC(=O)[C@@H]1CNC[C@H](N2CC(=O)N(c3ccccc3Cl)CC2(C)C)C1)c1cccnc1"
### Response no

### Prompt Is Ratio IC50 at least 2? Consider CC(C)C[C@@H](NC(=O)[C@@H]1CNC[C@H](N2CC(=O)N(c3ccccc3Cl)CC2(C)C)C1)C(O)C(C)C (stereo not given in full)
### Response no

### Prompt Is Ratio IC50 at least 2? Consider "Cc1ccc(F)cc1N1CC(C)(C)N([C@H]2CNC[C@@H](C(=O)N[C@H](CC(C)C)c3ccc(F)cn3)C2)CC1=O"
### Response yes
